System: influenza HA vaccine (B/Nagasaki/1/87 strain)
Format: in vivo, female CDF1 mice
assayConditions: Experiment 2; 3 W; 8000-fold dilution
Please respond with reported Anti HA serum antigen value (average value ± S.D.) for every item in the list.
Give bare numbers, in O.D 415 nm.

Consider the worked cases shown below.
smilesRepresentation	assayValue
CCCCCCCCCCCCCCCCCC(=O)OC[C@H]1O[C@@H](SC(=O)C[C@@H](CCCCCCCCCCC)OC(=O)CCCCCCCCCCCCCCC)[C@H](NC(C)=O)[C@@H](O[C@H](C)C(=O)N[C@@H](C)C(=O)N[C@H](CCC(=O)OC)C(N)=O)[C@@H]1O	0.110
CCCCCCCCCCCCCCCCCC(=O)OC[C@H]1O[C@@H](SC(=O)C[C@@H](CCCCCCCCCCC)OC(=O)CCCCCCCCCCCCCCCCC)[C@H](NC(C)=O)[C@@H](O[C@H](C)C(=O)N[C@@H](C)C(=O)N[C@H](CCC(=O)O)C(N)=O)[C@@H]1O	0.113
CCCCCCCCCCCCCCCCCCCCCCCC(=O)O[C@H](CCCCCCCCCCC)CC(=O)S[C@@H]1O[C@H](CO)[C@@H](O)[C@H](O[C@H](C)C(=O)N[C@@H](C)C(=O)N[C@H](CCC(=O)OC)C(N)=O)[C@H]1NC(C)=O	0.161

Below: the item to evaluate.
Short answer for `CCCCCCCCCCCCCCCCCC(=O)OC[C@H]1O[C@H](OC(=O)C[C@@H](CCCCCCCCCCC)OC(=O)CCCCCCCCCCCCCCCCC)[C@H](NC(C)=O)[C@@H](O[C@H](C)C(=O)N[C@@H](C)C(=O)N[C@H](CCC(=O)OC)C(N)=O)[C@@H]1O` : Anti HA serum antigen value (average value ± S.D.) was 0.100
